test system: RSK1(Kin.Dom.2-C-terminal); construct: gene RPS6KA1; conditions: concentration: 1 μM, replicates: in singlicate; n = 1;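 note: KINOMEscan kinase panel screen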
measured endpoint: %Inh (%)
Write the number in % without appending the unit.

> print(dat)
                                   compound  measured.endpoint  test.result
1  Cl.Oc1cccc(Nc2ccnc3cc(-c4ccncc4)ccc23)c1 [GW494601]               %Inh           13

Q: Would you kindly share the measured %Inh for COc1ccc(CNC(=O)NC2CCN(c3ccnc(Nc4ccc(OC)cc4)n3)C2)cc1 (stereo not shown) [GSK1379727] ?
Result: 0

Q: Entry to check: CCn1cnc2c(N)ncnc21 [GW345098]
Result: 11

Q: Entry to check: COc1ccc(COc2cc(-n3cnc4ccccc43)sc2C(N)=O)cc1 [GSK1024304]
Result: 0
